pIC50: −log10 of the molar value.
// Human eIF4E (Homo sapiens, UniProt P06730) pIC50 records
value.kind: pIC50

1. O=C(O)C1(CNc2nc(-c3ccc(Oc4ccccc4)cc3)c(-c3cccnc3)s2)CC1 ... < 4.60
2. CC(C)(CNc1nc(-c2ccc(-c3cnco3)cc2)c(-c2ccccc2)s1)C(=O)O ... < 4.60
3. O=C(O)C1CN(c2nc(-c3ccc(-c4cnco4)cc3)c(-c3ccccc3)s2)CCO1 (centres unmarked) ... < 4.60
4. O=C(O)C1CCN(c2nc(-c3ccc(Oc4ccccc4)cc3)c(-c3ccccc3)s2)C1 (centres unmarked) ... > 5.30
5. CC1(C(=O)O)CCCN(c2nc(-c3ccc(Oc4ccccc4)cc3)c(-c3cncnc3)s2)C1 (centres unmarked) ... < 4.60
6. O=C(O)C1(CNc2nc(-c3ccc(-c4ccc(F)cc4)cc3)c(-c3cccc4[nH]ccc34)s2)CC1 ... > 5.30
7. CC(CC(=O)O)Nc1nc(-c2ccc(Oc3ccccc3)cc2)c(-c2cccc3[nH]ccc23)s1 (centres unmarked) ... < 4.60
8. CC(C)[C@H](CC(=O)O)Nc1nc(-c2ccc(-c3ccc(F)cc3)cc2)c(Br)s1 ... > 5.30
9. CC(C)C(CC(=O)O)Nc1nc(-c2ccc(-c3ccc(F)cc3)cc2)c(Br)s1 (centres unmarked) ... 4.60 to 5.30
10. CC1(C(=O)O)CCCN(c2nc(-c3ccc(-c4ccc(F)cc4)cc3)c(-c3cncnc3)s2)C1 (centres unmarked) ... < 4.60
11. CCCC(CNc1nc(-c2ccc(-c3ccc(F)cc3)cc2)c(-c2cccc3[nH]ccc23)s1)C(=O)O (centres unmarked) ... 4.60 to 5.30
12. O=C(O)CCc1nc(-c2ccc(-c3ccc(F)cc3)cc2)c(C(F)(F)F)s1 ... 4.60 to 5.30
13. CC(CNc1nc(-c2ccc(-c3cnco3)cc2)c(-c2ccccc2)s1)C(=O)O (centres unmarked) ... < 4.60
14. CC1(C(=O)O)CCCN(c2nc(-c3ccc(-c4cnco4)cc3)c(-c3cccnc3)s2)C1 (centres unmarked) ... < 4.60
15. O=C(O)C1CC(CNc2nc(-c3ccc(Oc4ccccc4)cc3)c(-c3ccccc3)s2)C1 (centres unmarked) ... > 5.30
16. CC1(C(=O)O)CCCN(c2nc(-c3ccc(-c4ccc(F)cc4)cc3)c(-c3cccnc3)s2)C1 (centres unmarked) ... 4.60 to 5.30
17. CC(CNc1nc(-c2cncnc2)c(-c2ccc(-c3ccc(F)cc3)cc2)s1)C(=O)O (centres unmarked) ... < 4.60
18. CC1(C(=O)O)CN(c2nc(-c3ccc(Oc4ccccc4)cc3)cs2)C1 ... < 4.60
19. CC(C)(CNc1nc(-c2ccc(Oc3ccccc3)cc2)c(-c2ccccc2)s1)C(=O)O ... > 5.30
20. O=C(O)C1(CNc2nc(-c3ccc(-c4ccc(F)cc4)cc3)cs2)CC1 ... < 4.60
21. CCCC(CNc1nc(-c2ccc(-c3cnco3)cc2)cs1)C(=O)O (centres unmarked) ... < 4.60
22. CC(C)C(CC(=O)O)Nc1nc(-c2cccnc2)c(-c2ccc(-c3cnco3)cc2)s1 (centres unmarked) ... < 4.60
23. CCCC(CNc1nc(-c2ccc(Oc3ccccc3)cc2)c(-c2cccnc2)s1)C(=O)O (centres unmarked) ... < 4.60
24. O=C(O)C1(CNc2nc(-c3ccc(-c4cnco4)cc3)c(-c3cncnc3)s2)CC1 ... < 4.60
25. O=C(O)C1(CNc2nc(-c3ccc(-c4ccc(F)cc4)cc3)c(Br)s2)CC1 ... 4.60 to 5.30
26. CC(C)(CNc1nc(-c2ccc(-c3cnco3)cc2)c(-c2cccnc2)s1)C(=O)O ... < 4.60

----------
# experimental.system: Human eIF4E (Homo sapiens, UniProt P06730)
# Construct: Human eIF4E (aa 28-217) with a C-terminal His-tag; made in house
# Sequence (P06730 28-217): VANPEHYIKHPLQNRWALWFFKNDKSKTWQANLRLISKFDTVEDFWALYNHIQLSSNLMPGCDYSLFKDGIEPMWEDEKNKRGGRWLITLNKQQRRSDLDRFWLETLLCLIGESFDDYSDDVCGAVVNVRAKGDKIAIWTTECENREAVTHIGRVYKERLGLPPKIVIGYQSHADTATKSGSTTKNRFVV
# protocol.description: Human eIF4E/4G2 binding assay (TR-FRET)
# experimental.context: eIF4E (aa 28-217) with biotin labeled 4G2 peptide
pIC50: −log10 of the molar value.
Examples of molecules with documented pIC50 follow.
value.kind: pIC50

1. O=C(O)CC1CCCN1c1nc(-c2ccc(Oc3ccccc3)cc2)c(-c2ccccc2)s1 (centres unmarked) ... > 5.30
2. O=C(O)C1CCN(c2nc(-c3ccc(-c4ccc(F)cc4)cc3)c(-c3cccc4[nH]ccc34)s2)CC1 ... 4.60 to 5.30
3. O=C(O)C1CCN(c2nc(-c3ccc(-c4ccc(F)cc4)cc3)c(-c3cncnc3)s2)CC1 ... < 4.60
4. CC(CNc1nc(-c2ccc(-c3cnco3)cc2)c(-c2cccnc2)s1)C(=O)O (centres unmarked) ... < 4.60
5. CC(CC(=O)O)Nc1nc(-c2ccc(-c3ccc(F)cc3)cc2)c(-c2cncnc2)s1 (centres unmarked) ... < 4.60
6. O=C(O)C1CCN(c2nc(-c3ccc(Oc4ccccc4)cc3)c(-c3cccnc3)s2)C1 (centres unmarked) ... < 4.60
7. CCCC(CNc1nc(-c2ccc(Oc3ccccc3)cc2)cs1)C(=O)O (centres unmarked) ... < 4.60
8. O=C(O)C1CN(c2nc(-c3ccc(-c4ccc(F)cc4)cc3)cs2)C1 ... < 4.60

----------
// Human eIF4E (Homo sapiens) IC50 records
value.kind: IC50

1) CC1(C(=O)O)CN(c2nc(-c3ccc(-c4ccc(F)cc4)cc3)c(-c3cccnc3)s2)C1 [Compound I-85] ... > 25 µM
2) CC(C)(CNc1nc(-c2ccc(-c3cnco3)cc2)c(-c2cccc3[nH]ccc23)s1)C(=O)O [Compound I-8] ... > 25 µM
3) O=C(O)C1CCN(c2nc(-c3ccc(Oc4ccccc4)cc3)c(-c3cccc4[nH]ccc34)s2)CC1 [Compound I-212] ... 5 to 25 µM
4) CCCC(CNc1nc(-c2ccc(-c3ccc(F)cc3)cc2)c(-c2ccccc2)s1)C(=O)O (centres unmarked) [Compound I-89] ... < 5 µM
5) O=C(O)C1CCN(c2nc(-c3ccc(-c4ccc(F)cc4)cc3)c(-c3cccnc3)s2)C1 (centres unmarked) [Compound I-118] ... > 25 µM
6) O=C(O)C1CC(CNc2nc(-c3ccc(Oc4ccccc4)cc3)cs2)C1 (centres unmarked) [Compound I-200] ... > 25 µM
7) CC1(C(=O)O)CCCN(c2nc(-c3ccc(Oc4ccccc4)cc3)c(-c3cccnc3)s2)C1 (centres unmarked) [Compound I-219] ... 5 to 25 µM
8) CC(CNc1nc(-c2ccc(Oc3ccccc3)cc2)c(-c2ccccc2)s1)C(=O)O (centres unmarked) [Compound I-177] ... 5 to 25 µM

Reference for the values: patent US12030875B2
